Test: physchem
Conditions: citrate buffer 0.5 m, pH 5.3
Counter-ions that a name gives are not always drawn.
measured-parameter: solubility
Kindly format the answer as number then unit.

Query string: Sample CN1CCC[C@@H]1CCO[C@](C)(c1ccccc1)c1ccc(Cl)cc1 [Clemastine Fumarate, clemastine fumarate] — what was its solubility?
Result string: 31.6 mg/mL

* * *

Test: physchem
Conditions: sodium fumarate 0.5 m, pH 6.4, Clemastine Fumarate Solubility
Counter-ions that a name gives are not always drawn.
measured-parameter: solubility at 24 h (mg/mL)
The reply should be a number in mg/mL, with the unit left off.

Query string: I have this compound here, CN1CCC[C@@H]1CCO[C@](C)(c1ccccc1)c1ccc(Cl)cc1 [Clemastine Fumarate, clemastine fumarate] , and I need its recorded solubility at 24 h.
Result string: 82.1

* * *

Test: physchem
Settings: sodium acetate 0.5 m, pH 5.6, Clemastine Fumarate Solubility
Where a name gives a salt, the structure may show the parent alone.
measured-parameter: solubility at 24 h (mg/mL)
The answer is to be given in mg/mL; state only the numeric part.

Query string: Item CN1CCC[C@@H]1CCO[C@](C)(c1ccccc1)c1ccc(Cl)cc1 [Clemastine Fumarate, clemastine fumarate] has what recorded solubility at 24 h?
Result string: 24

* * *

Assay: physchem
Conditions: sodium malate 1.0 m, pH 5.7, Clemastine Fumarate Solubility
Structures can show the parent of a compound that is named as a salt.
measured-parameter: solubility at 24 h (mg/mL)
Answer in mg/mL, number only, no unit symbol.

Query string: Given CN1CCC[C@@H]1CCO[C@](C)(c1ccccc1)c1ccc(Cl)cc1 [Clemastine Fumarate, clemastine fumarate] , state its recorded solubility at 24 h.
Result string: 29.3

* * *

Test: physchem
Details: sodium tartarate 0.5 m, pH 5.1, Clemastine Fumarate Solubility
Where a name gives a salt, the structure may show the parent alone.
measured-parameter: solubility at 24 h
Give me the value, and tack the unit on after it.

Query string: Param item = CN1CCC[C@@H]1CCO[C@](C)(c1ccccc1)c1ccc(Cl)cc1 [Clemastine Fumarate, clemastine fumarate] ; retrieve measured solubility at 24 h.
Result string: 13.3 mg/mL

* * *

Test: physchem
Conditions: sodium glycinate 0.25 m, pH 9.1, Clemastine Fumarate Solubility
Structures can show the parent of a compound that is named as a salt.
measured-parameter: solubility at 24 h (mg/mL)
Just the number in mg/mL, nothing appended.

Query string: Which solubility at 24 h reading was recorded for the compound CN1CCC[C@@H]1CCO[C@](C)(c1ccccc1)c1ccc(Cl)cc1 [Clemastine Fumarate, clemastine fumarate] ?
Result string: 15.5

* * *

Assay: physchem
Details: citrate buffer 0.5 m, pH 5.6
Where a name gives a salt, the structure may show the parent alone.
measured-parameter: solubility (mg/mL)
Just the number please, in mg/mL, no unit attached.

Query string: // returns reported solubility for input CN1CCC[C@@H]1CCO[C@](C)(c1ccccc1)c1ccc(Cl)cc1 [Clemastine Fumarate, clemastine fumarate]
Result string: 46.3

* * *

Test: physchem
Conditions: acetate buffer 0.5 m, pH 5
Where a name gives a salt, the structure may show the parent alone.
measured-parameter: solubility (µg/mL)
Just the number please, in µg/mL, no unit attached.

Query string: Name the recorded solubility for CN1CCC[C@@H]1CCO[C@](C)(c1ccccc1)c1ccc(Cl)cc1 [Clemastine Fumarate, clemastine fumarate] .
Result string: 3800

* * *

Test: physchem
Conditions: sodium malate 0.25 m, pH 6, Clemastine Fumarate Solubility
Counter-ions that a name gives are not always drawn.
measured-parameter: solubility at 24 h (mg/mL)
Could you give me the number in mg/mL? Just the number is fine.

Query string: Given the molecule CN1CCC[C@@H]1CCO[C@](C)(c1ccccc1)c1ccc(Cl)cc1 [Clemastine Fumarate, clemastine fumarate] , what is its reported solubility at 24 h?
Result string: 16.9

* * *

Experiment: physchem
Conditions: ammonium acetate 0.5 m, pH 5.6, Clemastine Fumarate Solubility
Where a name gives a salt, the structure may show the parent alone.
measured-parameter: solubility at 24 h (mg/mL)
Field: numeric (mg/mL). Do not append units.

Query string: Need solubility at 24 h of CN1CCC[C@@H]1CCO[C@](C)(c1ccccc1)c1ccc(Cl)cc1 [Clemastine Fumarate, clemastine fumarate] , thanks.
Result string: 25.7

* * *

Assay: physchem
Conditions: sodium citrate 0.25 m, pH 5.7, Clemastine Fumarate Solubility
Structures can show the parent of a compound that is named as a salt.
measured-parameter: solubility at 24 h (mg/mL)
I only need the number, in mg/mL, no unit after it.

Query string: So what does the record say about solubility at 24 h for CN1CCC[C@@H]1CCO[C@](C)(c1ccccc1)c1ccc(Cl)cc1 [Clemastine Fumarate, clemastine fumarate] ?
Result string: 40

* * *

Assay: physchem
Conditions: acetate buffer 0.5 m, pH 5.7
Structures can show the parent of a compound that is named as a salt.
measured-parameter: solubility
The reply should read as a number followed by its unit.

Query string: Requested field: solubility. Item: CN1CCC[C@@H]1CCO[C@](C)(c1ccccc1)c1ccc(Cl)cc1 [Clemastine Fumarate, clemastine fumarate]
Result string: 24 mg/mL

* * *

Experiment: physchem
Settings: sodium fumarate 0.25 m, pH 6.2, Clemastine Fumarate Solubility
Structures can show the parent of a compound that is named as a salt.
measured-parameter: solubility at 24 h (mg/mL)
Enter your answer as a number in mg/mL; do not include the unit.

Query string: Looking for the measured solubility at 24 h of CN1CCC[C@@H]1CCO[C@](C)(c1ccccc1)c1ccc(Cl)cc1 [Clemastine Fumarate, clemastine fumarate] , can you help?
Result string: 44.2

* * *

Assay: physchem
Details: sodium succinate 0.25 m, pH 6.1, Clemastine Fumarate Solubility
Counter-ions that a name gives are not always drawn.
measured-parameter: solubility at 24 h (mg/mL)
Reply with just the number (in mg/mL).

Query string: What solubility at 24 h value was documented for this compound, CN1CCC[C@@H]1CCO[C@](C)(c1ccccc1)c1ccc(Cl)cc1 [Clemastine Fumarate, clemastine fumarate] ?
Result string: 15.4

* * *

Assay: physchem
Conditions: sodium acetate 1.0 m, pH 5.7, Clemastine Fumarate Solubility
Counter-ions that a name gives are not always drawn.
measured-parameter: solubility at 24 h (mg/mL)
Your answer is read as mg/mL, so omit the unit and give the number.

Query string: Requested read-out: solubility at 24 h. Entry: CN1CCC[C@@H]1CCO[C@](C)(c1ccccc1)c1ccc(Cl)cc1 [Clemastine Fumarate, clemastine fumarate]
Result string: 41.2

* * *

Test: physchem
Details: ammonium acetate 0.1 m, pH 5.4, Clemastine Fumarate Solubility
Where a name gives a salt, the structure may show the parent alone.
measured-parameter: solubility at 24 h (µg/mL)
Reply numerically in µg/mL, unit not repeated.

Query string: Quick check: solubility at 24 h of CN1CCC[C@@H]1CCO[C@](C)(c1ccccc1)c1ccc(Cl)cc1 [Clemastine Fumarate, clemastine fumarate] ?
Result string: 6100

* * *

Test: physchem
Settings: sodium maleate 0.25 m, pH 6, Clemastine Fumarate Solubility
Structures can show the parent of a compound that is named as a salt.
measured-parameter: solubility at 24 h (mg/mL)
Reply numerically in mg/mL, unit not repeated.

Query string: Any idea what solubility at 24 h was measured for CN1CCC[C@@H]1CCO[C@](C)(c1ccccc1)c1ccc(Cl)cc1 [Clemastine Fumarate, clemastine fumarate] ?
Result string: 41.4

* * *

Assay: physchem
Settings: acetate buffer 0.5 m, pH 5.3
Structures can show the parent of a compound that is named as a salt.
measured-parameter: solubility (mg/mL)
// note: answer is a bare numeric in mg/mL

Query string: I would be grateful if you could share the reported solubility for CN1CCC[C@@H]1CCO[C@](C)(c1ccccc1)c1ccc(Cl)cc1 [Clemastine Fumarate, clemastine fumarate] .
Result string: 11.2
